- MEASURED_ON: Recombinant human mPGES-1 (Homo sapiens, UniProt O14684)
- Sequence (O14684 whole entry): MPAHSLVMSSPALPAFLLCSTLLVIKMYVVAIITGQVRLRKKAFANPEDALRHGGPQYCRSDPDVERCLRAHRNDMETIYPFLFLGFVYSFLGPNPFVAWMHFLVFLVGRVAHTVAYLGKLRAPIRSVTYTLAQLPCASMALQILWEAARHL
- PROTOCOL_DESCRIPTION: In-vitro screening of mPGES-1 inhibitors (inhibition of PGE2 formation from PGH2, HTRF detection)
- DETAILS: mPGES-1 enzyme; class symbols
pIC50: −log10 of the molar value.
ASSAY_READOUT: pIC50

Previously resolved entries follow.
[[record]]
chemical_structure = "O=c1[nH]c(-c2c(F)cccc2Cl)nn1-c1ccc(C#Cc2ccc(Cl)cc2F)cc1"
assay_readout = "pIC50"
measured = "> 7.30"

[[record]]
chemical_structure = "O=C(NCc1ccc(Cl)c(-n2nc(-c3ccc(C(F)(F)F)cc3F)[nH]c2=O)c1)C1CC1"
assay_readout = "pIC50"
measured = "< 7.00"

[[record]]
chemical_structure = "O=c1[nH]c(-c2c(F)cccc2Cl)nn1-c1ccc(C#Cc2ccc(F)nc2)cc1"
assay_readout = "pIC50"
measured = "> 7.30"

[[record]]
chemical_structure = "CC(C)(C)C(=O)NCc1cc(-c2nn(-c3ccc(F)c(C(F)(F)F)c3)c(=O)[nH]2)c(Cl)cc1F"
assay_readout = "pIC50"
measured = "> 7.30"

[[record]]
chemical_structure = "COc1cc(-n2nc(-c3cc(CNC(=O)C4CC4)ccc3Cl)[nH]c2=O)ccc1C(=O)Nc1ccc(F)c(C(F)F)c1"
assay_readout = "pIC50"
measured = "> 7.30"

[[record]]
chemical_structure = "COc1cc(-n2nc(-c3c(Cl)cccc3C#N)[nH]c2=O)ccc1C(=O)Nc1cccc(C(F)(F)F)c1"
assay_readout = "pIC50"
measured = "> 7.30"

[[record]]
chemical_structure = "O=C(NCc1ccc(Cl)c(-n2nc(-c3ccc(C#Cc4cccc(Cl)c4F)cc3F)[nH]c2=O)c1)C1CC1"
assay_readout = "pIC50"
measured = "> 7.30"

[[record]]
chemical_structure = "Cc1cc(C(F)(F)F)ccc1-n1nc(-c2cc(CNC(=O)C(C)(C)C)ccc2Cl)[nH]c1=O"
assay_readout = "pIC50"
measured = "< 7.00"

[[record]]
chemical_structure = "CC(C)(C)C(=O)NCc1ccc(Cl)c(-n2nc(-c3ccc(COCC(F)(F)F)cc3)[nH]c2=O)c1"
assay_readout = "pIC50"
measured = "> 7.30"

[[record]]
chemical_structure = "CC(C)(CO)C(=O)NCc1ccc(Cl)c(-n2nc(-c3ccc(C#CC4CC4)cc3)[nH]c2=O)c1"
assay_readout = "pIC50"
measured = "< 7.00"


Problem: Request: pIC50, test system Recombinant human mPGES-1 (Homo sapiens, UniProt O14684), entry CC(C)c1nnc(-c2ccc(-c3nn(-c4cc(CNC(=O)C(C)(C)C)ccc4Cl)c(=O)[nH]3)cc2)o1
Solution: 7.00 to 7.30

Problem: Next up: O=C(NCc1ccc(Cl)c(-n2nc(-c3ccc(C#Cc4ccc(C(F)(F)F)cc4Cl)cc3F)[nH]c2=O)c1)C1CC1
Solution: > 7.30
